Exercise: state measured IC50 for each of the compounds provided.
- target: VEGFR2 (Homo sapiens, UniProt P35968)
- Construct: GST-VEGFR2 (residues V789-V1356); GST (N); made in house; host or cells: Sf9 insect cells
- Sequence (P35968 789-1356): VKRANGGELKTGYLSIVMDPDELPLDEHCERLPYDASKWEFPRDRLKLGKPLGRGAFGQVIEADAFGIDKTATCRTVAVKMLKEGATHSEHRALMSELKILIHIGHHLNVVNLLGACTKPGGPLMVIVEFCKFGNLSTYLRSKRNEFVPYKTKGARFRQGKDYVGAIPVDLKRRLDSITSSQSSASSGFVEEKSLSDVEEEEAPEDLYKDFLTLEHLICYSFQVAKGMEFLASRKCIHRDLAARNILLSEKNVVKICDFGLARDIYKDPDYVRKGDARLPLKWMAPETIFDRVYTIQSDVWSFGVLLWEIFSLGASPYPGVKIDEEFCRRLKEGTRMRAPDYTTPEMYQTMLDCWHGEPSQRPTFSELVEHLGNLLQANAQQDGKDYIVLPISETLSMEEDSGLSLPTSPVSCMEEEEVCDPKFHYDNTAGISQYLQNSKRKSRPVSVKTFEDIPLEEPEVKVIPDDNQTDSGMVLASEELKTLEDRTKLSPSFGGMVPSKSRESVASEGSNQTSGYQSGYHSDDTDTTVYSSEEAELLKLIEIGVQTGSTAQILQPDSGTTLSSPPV
- test-summary: VEGFR2 Kinase-Glo kinase assay
- Assay type: biochemical
- condition-set: IC50, VEGFR2 assay, 1 μM ATP, bound in μM

IC50 reading for CN1CCN(c2ccc(C(=O)Nc3cc(-c4ccc(NC(=O)Oc5ccccc5)cc4)n[nH]3)cc2)CC1 : < 1 µM

IC50 reading for CN1CCN(c2ccc(C(=O)Nc3cc(-c4ccc(CNC(=O)Oc5ccccc5)cc4)n[nH]3)cc2)CC1 : < 1 µM

* * *

- target: wt-FLT3 (Homo sapiens)
- Construct: FLT3 kinase catalytic domain (residues Y567˜S993); made in house; host or cells: Sf9 insect cells (baculovirus, pBac-PAK8-GST-FLT3-KD plasmid)
- Sequence (P36888 567-993): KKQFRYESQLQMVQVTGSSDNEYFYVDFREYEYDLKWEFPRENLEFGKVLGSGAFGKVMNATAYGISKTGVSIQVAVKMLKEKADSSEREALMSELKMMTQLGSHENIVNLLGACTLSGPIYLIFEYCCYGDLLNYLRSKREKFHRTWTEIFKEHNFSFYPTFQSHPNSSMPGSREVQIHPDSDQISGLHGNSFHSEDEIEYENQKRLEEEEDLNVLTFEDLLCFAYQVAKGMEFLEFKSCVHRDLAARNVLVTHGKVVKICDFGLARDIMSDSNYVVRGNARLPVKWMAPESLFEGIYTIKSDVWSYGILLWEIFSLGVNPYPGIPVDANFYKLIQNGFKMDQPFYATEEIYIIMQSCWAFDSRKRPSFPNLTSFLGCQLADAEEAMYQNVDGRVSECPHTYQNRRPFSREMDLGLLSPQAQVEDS
- test-summary: FLT3 WT Kinase-Glo assay
- Assay type: biochemical
- condition-set: table of representative values; read-out: IC50 (nM) wt-FLT3
Mark condition met only for IC50 values smaller than 30 nM; exact matches and larger values are condition not met.

In the record for CCc1cc(NC(=O)NCc2ccc(-c3cc(NC(=O)c4ccc(CN5CCN(C)CC5)cc4)[nH]n3)cc2)no1 [Compound 62b] , is IC50 less than 30 nM?
condition met

In the record for CN1CCN(Cc2ccc(C(=O)Nc3cc(-c4ccc(CNC(=O)Nc5cc(C6CC6)on5)cc4)n[nH]3)cc2)CC1 [Compound 62d] , is IC50 less than 30 nM?
condition not met

In the record for CCc1cc(NC(=O)Nc2ccc(-c3cnc(Nc4cc(N5CCN(CC)CC5)nc(C)n4)s3)cc2)no1 , is IC50 less than 30 nM?
condition met

In the record for O=C(NCc1ccc(-c2cc(NC(=O)c3ccc(OCCN4CCOCC4)cc3)[nH]n2)cc1)Nc1cc(C2CC2)on1 [Compound 59d] , is IC50 less than 30 nM?
condition met

In the record for Cc1cc(-c2cc(NC(=O)c3ccc(OCCN4CCOCC4)cc3)[nH]n2)ccc1NC(=O)Nc1cc(C2CC2)on1 [Compound 46c] , is IC50 less than 30 nM?
condition not met

In the record for CCc1cc(NC(=O)Nc2ccc(-c3cnc(Nc4cc(N5CCC(N)C5)nc(C)n4)s3)cc2)no1 (stereo not shown) , is IC50 less than 30 nM?
condition met

In the record for CCc1cc(NC(=O)Nc2ccc(-c3cc(NC(=O)c4ccc(OCCN5CCOCC5)cc4)[nH]n3)cc2C)no1 [Compound 46b] , is IC50 less than 30 nM?
condition met

* * *

- target: VEGFR1 (Homo sapiens, UniProt P17948)
- Construct: GST-VEGFR1 (residues R781-I1338); GST (N); made in house; host or cells: Sf9 insect cells
- Sequence (P17948 781-1338): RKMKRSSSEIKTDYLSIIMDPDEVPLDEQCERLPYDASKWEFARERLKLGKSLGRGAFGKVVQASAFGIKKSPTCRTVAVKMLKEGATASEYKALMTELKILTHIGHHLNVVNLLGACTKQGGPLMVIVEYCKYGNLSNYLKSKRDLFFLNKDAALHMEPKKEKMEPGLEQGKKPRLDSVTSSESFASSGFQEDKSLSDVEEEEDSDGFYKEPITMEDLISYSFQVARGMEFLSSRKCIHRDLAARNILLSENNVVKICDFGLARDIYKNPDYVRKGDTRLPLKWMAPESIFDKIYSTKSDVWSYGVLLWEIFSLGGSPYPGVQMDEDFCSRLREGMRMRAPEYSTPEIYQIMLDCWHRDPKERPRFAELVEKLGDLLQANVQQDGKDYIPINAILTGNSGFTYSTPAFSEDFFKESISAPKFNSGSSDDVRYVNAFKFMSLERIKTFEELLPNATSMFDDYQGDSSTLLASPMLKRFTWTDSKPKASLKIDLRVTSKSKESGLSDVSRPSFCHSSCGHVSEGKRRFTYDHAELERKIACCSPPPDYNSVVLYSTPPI
- test-summary: VEGFR1 Kinase-Glo kinase assay
- Type: biochemical
- condition-set: VEGFR1 assay, 1 μM ATP, bound in nM; read-out: IC50
- Protocol: The recombinant GST-VEGFR1 (residues R781-I1338) or GST-VEGFR2 (residues V789-V1356) containing kinase domain were expressed in Sf9 insect cells. […] A 70-μL aliquot of each reaction mixture was transferred to a black microtiter plate and the luminescence was measured on Wallac Vector 1420 multilabel counter (PerkinElmer, Shelton, Conn., USA).
quantity-name: IC50

Item CCc1cc(NC(=O)Nc2ccc(-c3cnc(Nc4cc(N5CCC(N)C5)nc(C)n4)s3)cc2)no1 (stereo not drawn) was tested on VEGFR1 (Homo sapiens, UniProt P17948); the reported IC50 is < 100 nM

Item CC(C)(C)c1cc(NC(=O)Nc2ccc(-c3cc(NC(=O)c4ccc(OCCN5CCOCC5)cc4)[nH]n3)cc2)no1 was tested on VEGFR1 (Homo sapiens, UniProt P17948); the reported IC50 is < 100 nM

Item CN1CCN(c2ccc(C(=O)Nc3cc(-c4ccc(CNC(=O)OCc5ccccc5)cc4)n[nH]3)cc2)CC1 was tested on VEGFR1 (Homo sapiens, UniProt P17948); the reported IC50 is < 100 nM

Item CN1CCN(c2ccc(C(=O)Nc3cc(-c4ccc(NC(=O)Nc5cc(C(C)(C)C)on5)cc4)n[nH]3)cc2)CC1 was tested on VEGFR1 (Homo sapiens, UniProt P17948); the reported IC50 is < 100 nM

Item Cc1cc(-c2cc(NC(=O)c3ccc(OCCN4CCOCC4)cc3)[nH]n2)ccc1NC(=O)Nc1cc(C2CC2)on1 [Compound 46c] was tested on VEGFR1 (Homo sapiens, UniProt P17948); the reported IC50 is < 100 nM

Item O=C(NCc1ccc(-c2cc(NC(=O)c3ccc(OCCN4CCCC4)cc3)[nH]n2)cc1)OCc1ccccc1 was tested on VEGFR1 (Homo sapiens, UniProt P17948); the reported IC50 is < 100 nM

Item CN1CCN(Cc2ccc(C(=O)Nc3cc(-c4ccc(NC(=O)Nc5cc(C(C)(C)C)on5)cc4)n[nH]3)cc2)CC1 was tested on VEGFR1 (Homo sapiens, UniProt P17948); the reported IC50 is < 100 nM

Item CCc1cc(NC(=O)NCc2ccc(-c3cc(NC(=O)c4ccc(CN5CCN(C)CC5)cc4)[nH]n3)cc2)no1 [Compound 62b] was tested on VEGFR1 (Homo sapiens, UniProt P17948); the reported IC50 is < 100 nM

Item CCc1cc(NC(=O)Nc2ccc(-c3cnc(Nc4cc(N5CCN(CC)CC5)nc(C)n4)s3)cc2)no1 was tested on VEGFR1 (Homo sapiens, UniProt P17948); the reported IC50 is < 100 nM

Source: patent US9255072B2
